The reported measurements were obtained from patent US20160068605A1.

- Target: T1, cyno CD123 ECD displayed on pDisplay-transfected cells (cynomolgus monkey)
- T1 construct: ECD anchored on the surface of stably transfected HEK293 cells; also called cynoCD123 SP1 cells; cynoCD123 cells
- T1 chain: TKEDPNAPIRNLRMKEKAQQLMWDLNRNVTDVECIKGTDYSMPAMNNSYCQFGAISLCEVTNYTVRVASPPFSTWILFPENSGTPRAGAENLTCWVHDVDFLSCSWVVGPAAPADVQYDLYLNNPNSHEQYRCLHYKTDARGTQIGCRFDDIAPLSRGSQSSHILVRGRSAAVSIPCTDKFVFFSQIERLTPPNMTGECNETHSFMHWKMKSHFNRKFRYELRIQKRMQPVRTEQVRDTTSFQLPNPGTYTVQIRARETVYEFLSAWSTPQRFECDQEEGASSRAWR
- Assay Remarks: MSD cell binding on 293F pDisplay cells; fold change over background; parental 293F cells as control
Reported Property: binding result

Binder: I3RB33 (antibody, IgG1, V domains shown, IgG1) VH: QVQLVQSGAEVKKPGSSVKVSCKASGGTFSSYGISWVRQAPGQGLEWMGGIIPIFGTANYAQKFQGRVTITADESTSTAYMELSSLRSEDTAVYYCARGYWHWNYDYLDYWGQGTLVTVSS VL: EIVLTQSPATLSLSPGERATLSCRASQSVNDWLAWYQQKPGQAPRLLIYGASNRATGIPARFSGSGSGTDFTLTISSLEPEDFAVYYCQQYKRAPYTFGQGTKVEIK
Meas Value: binds
//
Binder: I3RB35 (antibody, IgG1, V domains shown, IgG1) VH: QVQLVQSGAEVKKPGSSVKVSCKASGGTFSSYAISWVRQAPGQGLEWMGGIIPIFGTANYAQKFQGRVTITADESTSTAYMELSSLRSEDTAVYYCARHLFWDAGPLDYWGQGTLVTVSS VL: DIQMTQSPSSLSASVGDRVTITCRASQSISSYLNWYQQKPGKAPKLLIYAASSLQSGVPSRFSGSGSGTDFTLTISSLQPEDFATYYCQQYFSPPYTFGQGTKVEIK
Meas Value: binds
